melting point: recorded values

Reference set, count: 5
CCOC(=O)C1=C(N)NC(C)=CC1c1cccc(Cl)c1 (stereo unspecified) = 140 °C
CCCC1=C(C#N)C(c2ccccc2C)c2c[nH]nc2N1 (stereo unspecified) = 230 °C
CCCc1ccc2c(c1)C(=O)N(c1ccc(C(C)C(=O)OC(C)(C)C)cc1)C2 (stereo unspecified) = 110 to 115 °C
CCCCC(=O)N(c1ccn(C)n1)C1CCCCC1 = 97.5 to 98 °C
CCN(CCF)CCN1C(=O)c2ccccc2C1=O = 57 to 59 °C

Input COc1ccc(C(=O)C=Cc2ccccc2)cc1C=CC(=O)O . Output melting point: 204 °C

// recorded melting point for O=C1N(Cc2ccncc2)Cc2cccnc2N1c1cccc([N+](=O)[O-])c1 : 169 to 170 °C

Item: Cc1c(Cl)ccc(C(=O)O)c1F | melting point: 198 °C

Form field melting point, entry COc1ccc(N)c(C(=O)Cc2nnnn2C)c1 : 170 to 172 °C

// melting point value for CC(C)(C)NNC(=O)OC(C)(C)C : 69 to 71 °C

Memo: COc1cc(CC(=O)NCC(=O)N(CCC(=O)O)Cc2ccc(OC)c(OC)c2)ccc1NC(=O)Nc1ccccc1C , reported melting point: 172 to 174 °C

---

ATTRIBUTE MEASURED: melting point

Cc1nc(N)nc(N)c1CCC(C)c1cccc(-c2ccc(C(F)(F)F)cc2)c1 (stereo unspecified) = 67 to 68 °C
CC(=O)NCC1CN(c2ccc(N3CCN(c4nnc(C)o4)CC3)c(F)c2)C(=O)O1 (stereo unspecified) = 212 to 214 °C
CCCCCCCCCCCCCCCC(=O)N[C@@H](CSC(=O)CCCCCCCCCCCCCCC)C(=O)O = 82 to 84 °C
CCOC(=O)c1[nH]c(-n2ccc(OCc3ccccc3)cc2=O)nc1C = 135 to 136 °C
Cc1cnc2c(Cl)nc3cc4ccccc4cc3n12 = 221 to 223 °C

The record that follows has no melting point shown yet.
The measured melting point associated with CCOC(=O)NNc1cc(C)c(-c2cccc(C#N)c2)nn1 reads 189 to 190 °C

---

# maps each entry to its melting point

Known results for molecules:
Fc1cc2nn(CCC#Cc3ccccn3)nc2cc1F = 131 to 132 °C
CCC(=O)N(C)N1CC(C)(C)C(=O)c2ccc(S(=O)(=O)c3ccccc3)cc21 = 153 to 155 °C

The reported value for CCCN(C(=O)COc1c(OC)cccc1OC)C1CCc2c(ccc(O)c2O)C1 (stereo not drawn) in terms of melting point is 157 to 158 °C

---

Catalogue of molecules with associated melting point

Examples from the recorded data:
COC1(C)CC(NC(=O)C(F)(F)F)C(O)(NC(=O)C(F)(F)F)C(C)O1 (stereo not drawn) = 165 to 166 °C
CCCCNc1cccc2c1C(=O)c1ccccc1C2=O = 78 to 79 °C
Cc1cc2cccc(OCCNCc3cccc(C4=CCCC4)c3)c2o1 = 133 °C
CC(=O)Nc1cc2c(s1)CCCN(CCCCN1CCN(c3ncccn3)CC1)C2=O = 158 to 161 °C
O=C=Nc1cc(OCC(F)(F)F)ccc1OCC(F)(F)F = 50 to 52 °C

# melting point (molecule: O=CNC1CCc2ccccc2N(C=O)C1 (stereo not drawn) ) is 130 °C

Measured melting point, CCc1cccc(C2=NC(C)(C)CO2)c1C : 96 to 98 °C

The molecule listed as CCOC(=O)c1nc2oc(C)c(C)c2c(=O)[nH]1 has a reported melting point of 180 to 182 °C

melting point reported for this molecule CCC(Cl)c1nc2cccnc2[nH]1 (stereo not drawn) : 137 °C

For this molecule ( COc1cc2cc3c(=O)c(C#N)c[nH]c3nc2cc1OC ), measured melting point is > 300 °C

Per the records, this molecule ( CC(C)n1c(C(F)(F)F)cnc1-c1ccc(O)cc1 ) has melting point equal to 249 to 250 °C

// field: melting point; key: CN(C(N)=O)C1CCCc2sccc21 (stereo not drawn) ; value = 152 to 154 °C

CCOC(=O)C(CC)C(=O)Nc1ccc(Br)cc1C (stereo not drawn) yielded melting point of 98 to 100 °C

---

Reported values of melting point for individual entries

Worked examples, 3 compounds total:
CC(C)C(=O)NC1c2cc3nonc3cc2OC(C)(C)C1O (configuration not stated) = 194 to 196 °C
COc1ccc(-c2ccc(C(N)=O)cc2)cc1Br = 246 to 250 °C
CCOc1ccc2c(c1)n(C1CCCCC1)c(=O)n2S(=O)(=O)c1ccc(C(=O)NC(C)(C)CO)cc1OC = 218 °C

Looking up COc1ccc2nc(Cl)cc(C)c2c1 , I found its melting point recorded as 144 to 145 °C

The compound listed as O=C(O)c1cn(C2CC2)c2c(OC(F)F)c(F)c(F)cc2c1=O shows melting point equal to 202 to 207 °C

Value of measured melting point for the entry CN1C(=O)C2(COc3cc4c(cc32)OCCO4)c2c(NC(=O)c3ccccc3)cccc21 (configuration not stated) : 192 to 194 °C

get_value(item= Cc1cccc(C(C)C)c1NC(=O)CCCCCBr , readout=melting point) returns 66 to 67 °C

O=c1[nH]c2ccccc2n1CCN1CCCCC1 has a reported melting point of 123 to 125 °C

---

We begin with a simple list: items and their reported melting point.

Check out these entries, answers already filled in.
N#Cc1nn(-c2ccc(C=O)cc2)nc1-c1ccccc1 = 111 to 115 °C
Cc1ccc(-c2ccc3c(c2)C=C(C(=O)Nc2ccc(CN(C)C4CCOCC4)cc2)CCN3C=O)cc1 = 229 to 230 °C
CC(C)(C)OC(=O)N1CCN(CCOc2cccc3c2c2cccc4c2n3C(c2ccccc2)CO4)CC1 (stereo unspecified) = 72 °C
CC1(Sc2ccccc2)C(=O)C2CC=CC21 (stereo unspecified) = 49 °C
CCNc1ccc(C(C)=O)cc1S(N)(=O)=O = 201 to 204 °C

Entry O=C(N1C=CC2=C(CCC=C2)c2ccccc21)n1ccnc1 — recorded melting point = 189 to 190 °C

compound CCOC(=O)Cc1c(C)n(Cc2csc(-c3ccc(Cl)cc3)n2)c2ccc(OCc3csc(-c4ccccc4)n3)cc12 , melting point observed: 155 to 157 °C

Given item COC(=O)CCCCCCCCOC1OC(CO)C(O)C(OC2OC(CO)C(O)C(O)C2O)C1NC(C)=O (stereo unspecified) , the value recorded as its melting point is 208 to 210 °C

---

The following compounds are listed with their measured melting point values.

GET /value?item= Cc1cccc(C)c1CCCN1C(=O)c2ccccc2C1=O &field=melting point returns 92 to 93.5 °C

---

ATTRIBUTE MEASURED: melting point

Some molecules with known melting point results, for comparison:
CCc1nnc(-c2ccc(OC)cc2)n1-c1ccccc1C = 118 °C
COc1cc(N)c2cc[nH]c2c1 = 83 to 86 °C
C=C(C)C1(CC(C)C)CCN(C(Cc2ccccc2)C(=O)NC)C1=O (stereo not drawn) = 91 to 92 °C
CCOC(=O)CC[C@H](NC(=O)c1ccc(C(CO)CC2CNc3nc(NC(=O)C(C)(C)C)nc(O)c3C2)cc1)C(=O)OCC (stereo partly drawn) = 133 to 135 °C
O=Cc1ccc2c(ccc3c4ccccc4ccc23)c1 = 215 to 216 °C

Cc1nc2c(OCc3c(Cl)ccc(S(=O)(=O)N4CCC[C@H]4C(=O)NCc4ccc(C=NN)cc4)c3Cl)cccn2c1C yielded melting point of 144 to 146 °C

The value of melting point measured for the molecule CC1(C)C=Cc2cc(OCc3ccccc3)c(OCc3ccccc3)cc2O1 turned out to be 50 to 51 °C

Lookup result for N=C(Nc1cc(Cl)cc(NC(=O)/C=C/c2ccccc2C(F)(F)F)c1)c1ccccc1F ; measured melting point: 209 to 210 °C

---

Measured melting point by item

Record excerpt, results attached:
Cn1c(=O)c(-c2ccccc2Cl)cc2cnc(NC3C4CN(C(=O)Nc5ccc(CC(=O)O)cc5)CC43)nc21 (configuration not stated) = 190 to 197 °C
CN1C(=O)Cn2c(-c3ccccc3)nnc2-c2cc(Cl)ccc21 = 204 to 206 °C
COC(=O)C(C)c1ccc(-c2ccccc2[N+](=O)[O-])cc1 (configuration not stated) = 83 to 86 °C
COc1ccc(C2(C#N)CCC(=O)CC2)c2nc(C(C)C)oc12 = 118 °C
CCn1cc(C(=O)O)c(=O)c2ccc(Cl)c(C)c21 = 221 to 222 °C
CC(=O)OC1CC2(C)C(CCC2(Sc2ccccc2)Sc2ccccc2)C2CCC3=CC(=O)C=CC3(C)C12F (configuration not stated) = 180 to 184 °C

Alright, here's another molecule for you.
Entry COc1cccc(P(=O)(c2ccc(C)cc2)c2ccc(C)cc2)c1 — recorded melting point = 96 to 98 °C
